Test system: Mo 17 inbred maize line
Assay: CSVT (Complex Stressing Vigour Test), seeds soaked in active agent, Mo 17 maize
Type: in vivo
Conditions: seeds soaked in 10 mg/l active agent, * = significant vs control P < 0.05
Quantity Measured: Ratio of high vigour plants (%)

{"Compound": "CNC(=NOCCCN1CCCCC1)N(C)c1ccccc1.Cl [Compound 6]", "Ratio of high vigour plants (%)": "36* %"}
{"Compound": "Cl.O=[N+]([O-])c1cccc(C(Cl)=NOCCCN2CCCCC2)c1 [Compound 3]", "Ratio of high vigour plants (%)": "28* %"}
{"Compound": "CCCCCCCCCCCCCCCC(=O)OC(CONC(=N)c1cccnc1)CN1CCCCC1.Cl (stereo not shown) [Compound 2]", "Ratio of high vigour plants (%)": "47* %"}
{"Compound": "Cl.O=[N+]([O-])c1ccccc1C(Cl)=NOCC(O)CN1CCCCC1 (stereo not shown) [Compound 4]", "Ratio of high vigour plants (%)": "32* %"}
{"Compound": "CCCCCCN(OCC(O)CN1CCCCC1)C(N)=O (stereo not shown) [Compound 8]", "Ratio of high vigour plants (%)": "23* %"}

Test system Mo 17 inbred maize line; read-out Ratio of high vigour plants (%); what value for CC(C)(C)NCC(O)CONC(=Nc1ccccc1)c1ccccc1.Cl (stereo not shown) [Compound 5] ? 35* %

Param readout= Ratio of high vigour plants (%); system= Mo 17 inbred maize line; entry= CC(C)(C)NCC(O)CONC(=O)c1cccc(C(F)(F)F)c1.Cl (stereo not shown) [Compound 1] ; returns value. 29* %
